Documented fold difference in affinity vs original across a set of binders
# tgt: binding partner of C5A (XPA23)
# assay.details: Biacore K-off
The answer is to be given in fold; state only the numeric part.

[[record]]
binder = "C5A (XPA23) VL T52H (antibody, V domains shown) VH: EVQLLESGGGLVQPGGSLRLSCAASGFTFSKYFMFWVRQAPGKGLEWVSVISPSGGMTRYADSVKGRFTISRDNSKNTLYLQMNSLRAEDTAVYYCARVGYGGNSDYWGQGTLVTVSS VL: DIQMTQSPSSVSASVGDRLTIICRASQDINRWLAWYQQTPGNAPKLLIHSAHSLQSGVPSRFSGSGSGTDFTLTINSLQPEDFATYYCQQADSFPLTFGGGTKVEIK"
metric_name = "fold difference in affinity vs original"
reported_measurement = 0.91


Q. // fetch fold difference in affinity vs original given entry C5A (XPA23) VL H49N (antibody, V domains shown) VH: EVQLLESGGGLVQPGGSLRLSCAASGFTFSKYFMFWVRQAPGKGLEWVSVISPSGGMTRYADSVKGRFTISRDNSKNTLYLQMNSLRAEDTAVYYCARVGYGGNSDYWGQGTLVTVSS VL: DIQMTQSPSSVSASVGDRLTIICRASQDINRWLAWYQQTPGNAPKLLINSATSLQSGVPSRFSGSGSGTDFTLTINSLQPEDFATYYCQQADSFPLTFGGGTKVEIK
A. 0.31
